Taken from patent US20240270821A1.

system name: hGIPR (Homo sapiens, UniProt P48546)
Sequence (P48546 22-466): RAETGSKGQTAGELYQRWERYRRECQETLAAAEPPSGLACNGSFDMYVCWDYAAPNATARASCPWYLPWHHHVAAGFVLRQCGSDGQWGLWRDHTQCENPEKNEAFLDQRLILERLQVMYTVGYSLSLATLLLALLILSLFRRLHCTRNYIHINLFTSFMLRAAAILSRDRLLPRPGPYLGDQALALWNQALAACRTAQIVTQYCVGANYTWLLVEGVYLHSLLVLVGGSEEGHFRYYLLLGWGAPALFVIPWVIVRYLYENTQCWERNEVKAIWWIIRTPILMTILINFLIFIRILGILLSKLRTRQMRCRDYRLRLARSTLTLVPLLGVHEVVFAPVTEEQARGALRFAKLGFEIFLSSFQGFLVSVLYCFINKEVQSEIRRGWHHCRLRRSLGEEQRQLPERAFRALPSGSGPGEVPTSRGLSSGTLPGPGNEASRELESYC
procedure summary: Functional cAMP activity in the presence of 1% HSA
Format: cell-based
run parameters: read-out: cAMP Rel EC50, hGIPR
Starred links: 1 amine or outer side, 2 acyl side, 3 side chain; linkers in the order of their positions; H or OH if unused. Non-standard residues stand in square brackets, D forms with d. Groups on a side chain read outwards from the residue. No end group written: not given here. *: point of attachment. C20 diacid = O=C(O)CCCCCCCCCCCCCCCCCCC(=O)*; C18 diacid = O=C(O)CCCCCCCCCCCCCCCCC(=O)*; αMePhe(2-F) = C[C@](N)(Cc1ccccc1F)C(=O)O; γGlu = O=C(O)[C@H](CCC(=O)[*:2])N[*:1]; NMeY = CN[C@@H](Cc1ccc(O)cc1)C(=O)O; αMe4Pal = C[C@](N)(Cc1ccncc1)C(=O)O; αMeY = C[C@](N)(Cc1ccc(O)cc1)C(=O)O; 4Pal = N[C@@H](Cc1ccncc1)C(=O)O; αMeL = CC(C)C[C@](C)(N)C(=O)O; αMeS = C[C@](N)(CO)C(=O)O; Orn = NCCC[C@H](N)C(=O)O; AEEA = NCCOCCOCC(=O)O; Aib = CC(C)(N)C(=O)O
Catalogue of substances with associated log10 of EC50
Quick note: numbers are log10 of EC50, with nM as the unit.

substance | system name | log10 of EC50
Y[Aib]QGT[αMePhe(2-F)]TSD[4Pal][αMeS]I[αMeL]LD[Orn]K([AEEA-γGlu-C18 diacid])AQ[αMe4Pal]EFI[dE][αMeY]LIEGGPSSGAPPPESE-NH2 [Example 1146] | hGIPR (Homo sapiens, UniProt P48546) | -0.08

Look up log10 of EC50 of H-Y[Aib]QGT[αMePhe(2-F)]TSDYSKLLDKIAQK([AEEA-γGlu-C20 diacid])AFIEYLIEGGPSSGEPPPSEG-NH2 [Example 304] and report it.
1.68

Look up log10 of EC50 of Y[Aib]QGTFTSDFS[Orn][αMeL]LDKK([AEEA-γGlu-C18 diacid])AQ[Aib]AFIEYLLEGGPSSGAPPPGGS-NH2 [Example 62] and report it.
1.49

Look up log10 of EC50 of H-Y[Aib]QGT[αMePhe(2-F)]TSD[4Pal][αMeS]I[αMeL]LD[Orn]K([AEEA-γGlu-C18 diacid])AQ[αMe4Pal]EFI[dE][αMeY]LIEGGPPSGEPPPEGE-NH2 [Example 1191] and report it.
-0.03

Look up log10 of EC50 of H-Y[Aib]QGTFTSDFS[Orn][αMeL]LDKK([AEEA-γGlu-C18 diacid])AQ[Aib]AFIEYLLAGGPSSGAPPPSGSQ-OH [Example 88] and report it.
1.39

Look up log10 of EC50 of [NMeY][Aib]QGTFTSD[4Pal][αMeS]I[αMeL]LD[Orn]K([dE-γGlu-C18 diacid])AQ[αMe4Pal]QFIQ[αMeY]LIE[Aib]GPSSGAPPPSGGGE-NH2 [Example 1135] and report it.
-0.06

Look up log10 of EC50 of Y[Aib]QGTFTSDFS[Orn][αMeL]LDKK([AEEA-γGlu-γGlu-C18 diacid])AQ[Aib]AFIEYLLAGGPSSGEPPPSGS-NH2 [Example 153] and report it.
1.23

Look up log10 of EC50 of H-Y[Aib]QGTFTSD[4Pal]SQ[αMeL]LD[Orn]K([γGlu-γGlu-C18 diacid])AQ[αMe4Pal]AFI[dE][αMeY]LIEGGPSSGAPPPSGSEE-NH2 [Example 1044] and report it.
1.95
